assay: gradient 5% acetonitrile 3 min, to 50% in 2 min, to 85% in 15 min, held 3 min, 100 µL/min; settings: column: Zorbax Extend-C18 2.1 x 50 mm; eluents: water / acetonitrile, 0.1% formic acid
true (1) if RP-LC retention time is below 700 s. false (0) if not; exact matches included in false (0).

Molecule: CC(C)NC(=O)N1CCOc2ccccc21
Label Value: false (0)
--
Molecule: Cc1ccc(CNC(=O)c2cnc(-c3ccc(C)cc3)nc2-c2ccncc2)cc1
Label Value: false (0)
--
Molecule: CCCc1cc(N2CCN(C(=O)c3cccc(C#N)c3)CC2)nc2nncn12
Label Value: true (1)
--
Molecule: Cc1ccc(CNC(=O)c2cc3c(=O)n(C)ccc3n2C)o1
Label Value: true (1)
--
Molecule: O=C([C@@H]1C[C@H](F)CN1C(=O)Nc1cccc(Cl)c1)N1CCCCC1
Label Value: false (0)
--
Molecule: Cc1nn(-c2ccc(-c3ccccc3)nn2)c(C)c1S(=O)(=O)NCc1ccc(F)cc1F
Label Value: false (0)
--
Molecule: Cc1ccccc1CN1C(=O)CN(S(C)(=O)=O)CC1(C)C(=O)NCc1ccccc1 (centres undefined)
Label Value: false (0)
--
Molecule: COc1ccc(NC(=O)Cn2nc3nc(N4CCCC4)ccn3c2=O)cc1Cl
Label Value: true (1)
--
Molecule: CN1CCN(S(=O)(=O)c2ccc3nn(CCc4ccccc4)c(=O)n3c2)CC1
Label Value: true (1)
--
Molecule: CCC(=O)N1c2ccc(S(=O)(=O)N3CCCCC3)cc2CC1C(=O)NCCCc1ccccc1 (centres undefined)
Label Value: false (0)
--
Molecule: Cc1ccc(-c2nc(NC(=O)c3cc(C)on3)sc2C)cc1
Label Value: false (0)
--
Molecule: O=C(O)C1CC(=O)N(c2ccc3c(c2)OCO3)C1 (centres undefined)
Label Value: true (1)
--
Molecule: CCn1cnc(S(=O)(=O)N2CCCC(C(=O)Nc3cc(C)cc(C)c3)C2)c1 (centres undefined)
Label Value: false (0)
--
Molecule: CC(NC(=O)c1ccc(NC(=O)C2CC2)cc1N1CCCCCC1)c1ccccn1 (centres undefined)
Label Value: true (1)
--
Molecule: Cc1cc(=O)n(CC(=O)Nc2ccccc2)c(-c2ccc(Cl)cc2)n1
Label Value: false (0)
--
Molecule: COc1ccc(OC)c(NC(=O)C(=O)c2cccn2C)c1
Label Value: false (0)
--
Molecule: O=S(=O)(Cc1ccccc1)N1CCCCC1c1noc(COCC2CC2)n1 (centres undefined)
Label Value: false (0)
--
Molecule: Cc1ccc2c(c1)N(S(C)(=O)=O)CCC(C(=O)Nc1ccc(F)cc1F)O2 (centres undefined)
Label Value: false (0)
--
Molecule: CCOC(=O)c1cnc(N2CCc3ccccc32)[nH]c1=O
Label Value: true (1)
--
Molecule: NC1N=C(c2ccccc2)c2ccccc2NC1=O (centres undefined)
Label Value: true (1)

* * *

test: gradient 5% acetonitrile 3 min, to 50% in 2 min, to 85% in 15 min, held 3 min, 100 µL/min; settings: column: Zorbax Extend-C18 2.1 x 50 mm; eluents: water / acetonitrile, 0.1% formic acid
Note that class boundaries on RP-LC retention time are category 1: < 700 s; category 2: ≥ 700 s and < 800 s; category 3: ≥ 800 s

Molecule: CC1CCCC(C)N1CCCNC(=O)Cn1ncc2c3ccccc3n(C)c2c1=O (configuration not stated)
Label Value: category 1
--
Molecule: COc1ccc(N2CCN(C(=O)Cn3nc(C(=O)N4CCCC4)c4ccccc43)CC2)cc1
Label Value: category 2
--
Molecule: O=C(c1ccc2ccccc2n1)N1CC(n2ccnc2)C1
Label Value: category 1
--
Molecule: CSc1nc2ccc(NC(=O)c3cccs3)cc2s1
Label Value: category 3
--
Molecule: COc1cccc(Cn2cccc(S(=O)(=O)N3CCC(C)CC3)c2=O)c1
Label Value: category 3
--
Molecule: CCOC(=O)c1noc2nc(C)nc(Nc3ccc(CN4CCN(CC)CC4)cc3)c12
Label Value: category 1
--
Molecule: Cc1ccc(NC(=O)C(C)C2CCN(C(=O)Nc3ccccc3)CC2)cc1 (configuration not stated)
Label Value: category 3
--
Molecule: Cc1ccc(-c2cc(C(F)(F)F)n3nc(C(=O)O)cc3n2)cc1
Label Value: category 3
--
Molecule: CCNS(=O)(=O)c1cccnc1Nc1cccc(Cl)c1
Label Value: category 3
--
Molecule: Cc1nnc2c(=O)n(CC(=O)NCc3cc(F)ccc3F)c3cccnc3n12
Label Value: category 1
--
Molecule: Cc1nc2cc(N3CC(C(=O)N4CCN(c5ccccc5)CC4)CC3=O)ccc2o1 (configuration not stated)
Label Value: category 2
--
Molecule: COc1ccc(Cl)cc1S(=O)(=O)N1CCC(n2cnnc2C(C)C)CC1
Label Value: category 2
--
Molecule: O=C(Cn1c(=O)c2cccn2c2ccc(F)cc21)N1CCC(N2CCCCC2)CC1
Label Value: category 1
--
Molecule: O=C(NCc1ccccc1C(F)(F)F)C1CCN(c2nnc(-c3ccccc3)o2)CC1
Label Value: category 3
